- STUDY SYSTEM: T1, PCSK9 (UniProt Q8NBP7 31-692, limits assumed)
- T1 construct: Printed only as 'PCSK9' in Embodiments 5.4 and 6; also called Proprotein Convertase Subtilisin/Kexin Type 9; PCSK9 solution
- T1 sequence (Q8NBP7 31-692 limits assumed): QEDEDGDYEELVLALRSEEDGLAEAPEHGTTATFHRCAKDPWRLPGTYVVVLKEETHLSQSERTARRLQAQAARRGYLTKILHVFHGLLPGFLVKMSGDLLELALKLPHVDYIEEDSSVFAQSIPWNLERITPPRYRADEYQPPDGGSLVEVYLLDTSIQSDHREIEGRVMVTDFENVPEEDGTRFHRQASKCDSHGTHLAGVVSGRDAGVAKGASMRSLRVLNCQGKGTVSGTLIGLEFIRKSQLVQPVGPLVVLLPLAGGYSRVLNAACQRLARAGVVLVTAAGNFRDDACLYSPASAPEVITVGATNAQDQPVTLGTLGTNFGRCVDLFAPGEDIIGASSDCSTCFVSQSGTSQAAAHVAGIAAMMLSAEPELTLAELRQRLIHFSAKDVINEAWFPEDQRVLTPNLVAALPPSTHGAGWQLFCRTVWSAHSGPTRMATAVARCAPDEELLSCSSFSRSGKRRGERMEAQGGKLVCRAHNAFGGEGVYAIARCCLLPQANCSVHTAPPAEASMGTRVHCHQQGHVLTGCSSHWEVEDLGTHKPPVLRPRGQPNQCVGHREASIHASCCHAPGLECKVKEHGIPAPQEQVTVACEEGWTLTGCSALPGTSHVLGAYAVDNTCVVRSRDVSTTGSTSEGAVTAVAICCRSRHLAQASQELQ
- ASSAY SUMMARY: SPR BIAcore X100, antibody captured by goat anti-human IgG on CM5, PCSK9 as analyte
OBSERVATION TYPE: koff

# count of solved cases: 5
[[record]]
binder = "DFSK9-19 complete antibody (antibody, V domains shown) VH: QVQLVQSGAEVKKPGASVKVSCKASGYSLTSYGISWVRQAPGQGLEWMGWVTFYNGNTNYAQKLQGRGTMTTDPSTSTAYMELRSLRSDDTAVYYCARGFGLSVWGQGTTVTVSS VL: DIQMTQSPSSLSASVGDRVTITCRASQNVNNWLNWYQQKPGKAPKLLIYAASTRETGVPSRFSGSGSGTDFTLTISSLQPEDFATYYCQQDNDMPLTFGQGTKVEIK"
reading = "7.34e-05 s⁻¹"

[[record]]
binder = "DFSK9-13 complete antibody (antibody, V domains shown) VH: QVQLVQSGAEVKKPGASVKVSCKASGYSLTSYGISWVRQAPGQGLEWMGWVSFYQGNTNYAQKLQGRGTMTTDPSTSTAYMELRSLRSDDTAVYYCARGYGMTVWGQGTTVTVSS VL: DIQMTQSPSSLSASVGDRVTITCRASQDVDSWLTWYQQKPGKAPKLLIYGASNLASGVPSRFSGSGSGTDFTLTISSLQPEDFATYYCQQDSKIPLTFGQGTKVEIK"
reading = "2.99e-05 s⁻¹"

[[record]]
binder = "DFSK9-20 complete antibody (antibody, V domains shown) VH: QVQLVQSGAEVKKPGASVKVSCKASGYSLTSYGISWVRQAPGQGLEWMGWVSFYNGNSNYAQKLQGRGTMTTDPSTSTAYMELRSLRSDDTAVYYCARGFGMDRWGQGTTVTVSS VL: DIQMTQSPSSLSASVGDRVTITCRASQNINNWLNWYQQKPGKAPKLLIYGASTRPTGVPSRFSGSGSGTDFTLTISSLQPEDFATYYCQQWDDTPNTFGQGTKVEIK"
reading = "1.45e-05 s⁻¹"

[[record]]
binder = "DFSK9-21 complete antibody (antibody, V domains shown, also called DF5K9-21) VH: QVQLVQSGAEVKKPGASVKVSCKASGYSLTSYGISWVRQAPGQGLEWMGWVSFYNGQTNYAQKLQGRGTMTTDPSTSTAYMELRSLRSDDTAVYYCARGFGMDRWGQGTTVTVSS VL: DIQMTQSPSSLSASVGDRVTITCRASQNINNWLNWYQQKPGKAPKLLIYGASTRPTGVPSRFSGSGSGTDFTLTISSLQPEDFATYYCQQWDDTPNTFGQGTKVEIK"
reading = "4.24e-06 s⁻¹"

[[record]]
binder = "DFSK9-1 complete antibody (antibody, V domains shown) VH: QVQLVQSGAEVKRPGASVKVSCKASGGTFTNNAISWVRQAPGQGLEWMGRIIPMFGMANYAQKLQGRGTMTTDPSTSTAYMELRSLRSDDTAVYYCAREGIPMIWGQGTTVTVSS VL: DIQMTQSPSSLSASVGDRVTITCRASQSIDNRLTWYQQKPGKAPKLLIYDASSRQSGVPSRFSGSGSGTDFTLTISSLQPEDFATYYCQQPENDPTTFGQGTKVEIK"
reading = "9.19e-05 s⁻¹"


Any idea what koff was measured for DFSK9-18 complete antibody (antibody, V domains shown) VH: QVQLVQSGAEVKKPGASVKVSCKASGYTVTSYGISWVRQAPGQGLEWMGWVSFYNGNSNYAQKLQGRGTMTTDPSTSTAYMELRSLRSDDTAVYYCARGYSLDVWGQGTTVTVSS VL: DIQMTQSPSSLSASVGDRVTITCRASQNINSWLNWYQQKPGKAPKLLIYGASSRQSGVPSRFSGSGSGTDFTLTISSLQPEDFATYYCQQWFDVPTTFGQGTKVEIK ?
1.99e-06 s⁻¹

Any idea what koff was measured for DFSK9-14 complete antibody (antibody, V domains shown) VH: QVQLVQSGAEVKKPGASVKVSCKASGYSLTSYGISWVRQAPGQGLEWMGWVSFYNGQTNYAQKLQGRGTMTTDPSTSTAYMELRSLRSDDTAVYYCARGYGMSIWGQGTTVTVSS VL: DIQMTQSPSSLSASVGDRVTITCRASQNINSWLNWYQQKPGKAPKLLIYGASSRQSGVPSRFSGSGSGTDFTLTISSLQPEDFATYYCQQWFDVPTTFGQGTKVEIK ?
7.9e-05 s⁻¹

Any idea what koff was measured for DFSK9-12 complete antibody (antibody, V domains shown) VH: QVQLVQSGAEVKKPGASVKVSCKASGYTVTSYGISWVRQAPGQGLEWMGWLSFYNGNTNYAQKLQGRGTMTTDPSTSTAYMELRSLRSDDTAVYYCARGYSLDVWGQGTTVTVSS VL: DIQMTQSPSSLSASVGDRVTITCRASQSVRNWLDWYQQKPGKAPKLLIYGASTLESGVPSRFSGSGSGTDFTLTISSLQPEDFATYYCQQDNDIPLTFGQGTKVEIK ?
4.98e-05 s⁻¹

Any idea what koff was measured for DFSK9-15 complete antibody (antibody, V domains shown) VH: QVQLVQSGAEVKKPGASVKVSCKASGYTVTSYGISWVRQAPGQGLEWMGWVSFYNGQTNYAQKLQGRGTMTTDPSTSTAYMELRSLRSDDTAVYYCARGYSLDVWGQGTTVTVSS VL: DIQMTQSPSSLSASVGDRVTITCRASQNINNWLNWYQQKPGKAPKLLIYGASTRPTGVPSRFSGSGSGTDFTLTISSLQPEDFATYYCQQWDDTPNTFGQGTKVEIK ?
4.75e-06 s⁻¹

Any idea what koff was measured for DFSK9-16 complete antibody (antibody, V domains shown) VH: QVQLVQSGAEVKKPGASVKVSCKASGYTVTSYGISWVRQAPGQGLEWMGWVSFYQGNTNYAQKLQGRGTMTTDPSTSTAYMELRSLRSDDTAVYYCARGFGMDRWGQGTTVTVSS VL: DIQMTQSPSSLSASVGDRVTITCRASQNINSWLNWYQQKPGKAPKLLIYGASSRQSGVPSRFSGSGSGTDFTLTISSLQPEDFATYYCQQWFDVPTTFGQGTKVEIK ?
5.61e-05 s⁻¹

Any idea what koff was measured for DFSK9-17 complete antibody (antibody, V domains shown) VH: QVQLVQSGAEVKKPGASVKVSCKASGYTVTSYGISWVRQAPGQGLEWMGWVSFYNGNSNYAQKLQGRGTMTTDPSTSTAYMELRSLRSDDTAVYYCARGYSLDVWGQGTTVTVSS VL: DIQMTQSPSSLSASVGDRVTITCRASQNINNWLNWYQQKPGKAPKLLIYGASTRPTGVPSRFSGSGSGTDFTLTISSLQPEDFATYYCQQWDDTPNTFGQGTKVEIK ?
1.84e-06 s⁻¹
